system: NCI-H23; test: NCI tumour cell line growth inhibition, 48 h
The source made the active and inactive calls. No stated cut-off is given here; in the data, active = GI50 up to about 1.1 µM and inactive = higher. Where a SMILES comes first, the peptide text is derived from it. The star is where a group is joined. Boc = CC(C)(C)OC(=O)*
Outcome codes: t for active, f for inactive

- MOLECULE: "COC1OC(CBr)C(OC(=O)c2ccccc2)C(O)C1Br (stereo unspecified)"
  QUALITATIVE LABEL: "f"
- MOLECULE: "CN(C(=O)Cc1ccc(Cl)c(Cl)c1)[C@@H]1CCCC[C@H]1[N+]1(C)CC=CC1"
  QUALITATIVE LABEL: "f"
- MOLECULE: "COc1ccc(C2=Nn3c(C)nnc3S/C2=C\\c2ccc(-c3ccc([N+](=O)[O-])cc3)o2)cc1"
  QUALITATIVE LABEL: "f"
- MOLECULE: "CC1(O)OC(=O)C2=C1CCC1C2CCC2(C)C(O)CCC12 (stereo unspecified)"
  QUALITATIVE LABEL: "f"
- MOLECULE: "CCCn1c(=O)c(N2CCN(c3ccccc3)CC2)nc2sc3ccccc3c21"
  QUALITATIVE LABEL: "f"
- MOLECULE: "N=C(N)N/N=C/c1c(Cl)nc2sccn12"
  QUALITATIVE LABEL: "f"
- MOLECULE: "O=C1C([N-]S(=O)(=O)c2ccccc2)=C([n+]2ccc(Cc3ccccc3)cc2)C(=O)c2ccccc21"
  QUALITATIVE LABEL: "t"
- MOLECULE: "CCCN/C(N)=N/C#N"
  QUALITATIVE LABEL: "f"
- MOLECULE: "C[N+](C)(C)CC(=O)N/N=C(/Cc1cc(=O)oc2cc(O)ccc12)C(=O)Nc1ccc(Cl)cc1"
  QUALITATIVE LABEL: "f"
- MOLECULE: "O=C(c1ccc(NCN2C(=O)CCC2=O)cc1)c1ccc(NCN2C(=O)CCC2=O)cc1"
  QUALITATIVE LABEL: "f"
- MOLECULE: "Cc1nc(C(N)=S)sc1C(=O)CC(=O)C(=O)Nc1ccccc1[N+](=O)[O-]"
  QUALITATIVE LABEL: "f"
- MOLECULE: "CNC(=O)CNC(=O)C(NC(=O)CNC(=O)C1CCCN1C(=O)C(C)NC(=O)C(NC(=O)OC(C)(C)C)C(C)C)C(C)C (stereo unspecified) (Boc-VAPGVG-NHMe; configuration not given here)"
  QUALITATIVE LABEL: "f"
- MOLECULE: "COC(=O)c1ccc(CS(=O)(=O)c2ccccc2)cc1"
  QUALITATIVE LABEL: "f"
- MOLECULE: "O=C1N/C(=N\\N=C\\c2ccccc2)C2(CCCCC2)O1"
  QUALITATIVE LABEL: "f"
- MOLECULE: "COc1cc2c(cc1O)[C@H](C)C(c1ccc(Cl)cc1)O2 (stereo partly specified)"
  QUALITATIVE LABEL: "f"
- MOLECULE: "O=[N+]([O-])c1cc(C(F)(F)F)ccc1S(=O)(=O)N[C@@H]1CCCC[C@H]1NS(=O)(=O)c1ccc(C(F)(F)F)cc1[N+](=O)[O-]"
  QUALITATIVE LABEL: "f"
- MOLECULE: "O=[N+]([O-])c1ccc(-c2nc3cc([N+](=O)[O-])ccc3[nH]2)cc1"
  QUALITATIVE LABEL: "f"
- MOLECULE: "Cc1cc2c(c(C#N)c1C)NC(=O)C(CC(=O)O)C2=O (stereo unspecified)"
  QUALITATIVE LABEL: "f"
- MOLECULE: "Cc1cccc(C(C)C)c1N1C(=O)C(=O)C(c2nc3ccccc3o2)C(=O)C1=O"
  QUALITATIVE LABEL: "f"
- MOLECULE: "CN(C(=N)c1ccccc1)c1ccccc1"
  QUALITATIVE LABEL: "f"
- MOLECULE: "C/C(=N\\NC(=O)c1ccccc1O)c1c(O)cc(C)oc1=O"
  QUALITATIVE LABEL: "f"
- MOLECULE: "Cc1nc2c(sc(=S)n2-c2ccccc2)c(=O)[nH]1"
  QUALITATIVE LABEL: "f"
- MOLECULE: "COc1ccc(N2C(=O)CC(C3CC(C(C)(C)C)CCC3=O)C2=O)cc1 (stereo unspecified)"
  QUALITATIVE LABEL: "f"
- MOLECULE: "CCC(Nc1ncnc2nc[nH]c12)C(=O)O (stereo unspecified)"
  QUALITATIVE LABEL: "f"
- MOLECULE: "Nc1nc2c(=O)c3ccccc3sc2s1"
  QUALITATIVE LABEL: "f"
- MOLECULE: "CCOC(=O)C(=O)/C=C(\\C)Nc1c(NC2OCC(OC(C)=O)C(OC(C)=O)C2OC(C)=O)nc(SC)[nH]c1=O (stereo unspecified)"
  QUALITATIVE LABEL: "f"
- MOLECULE: "CSc1ncnc2c1cnn2CCCCO"
  QUALITATIVE LABEL: "f"
- MOLECULE: "C=C(C)C(=O)[C@@]12C(=O)[C@@H](C)CC[C@H]1[C@H](C)C[C@@H]2C=C(C)C"
  QUALITATIVE LABEL: "f"
- MOLECULE: "CSCCCNC(=O)c1csc([C@@H](CSC)NC(=O)CCNC(=O)[C@@H](NC(=O)OCC(Br)(Br)Br)C(C)O)n1 (stereo partly specified)"
  QUALITATIVE LABEL: "f"
- MOLECULE: "COc1ccc(/C=C2/S/C(=N\\c3ccccc3)N(NC(=O)Cc3ccccc3)C2=O)c(OC)c1"
  QUALITATIVE LABEL: "f"
- MOLECULE: "C(=N\\N=C1NCCCN1)/c1ccc2ccccc2c1"
  QUALITATIVE LABEL: "f"
- MOLECULE: "C#CCOC(=O)c1ccccc1OC(C)=O"
  QUALITATIVE LABEL: "f"
- MOLECULE: "CC(C)(C)c1cc(C(=O)O)c(C(c2ccccc2)c2ccccc2C(=O)O)c(C(=O)O)c1 (stereo unspecified)"
  QUALITATIVE LABEL: "f"
- MOLECULE: "COc1ccc(NC(=O)CC(=O)N2N=C(c3ccccc3)C(/N=N/c3ccc(S(=O)(=O)CCOS(=O)(=O)O)cc3)C2=O)cc1 (stereo unspecified)"
  QUALITATIVE LABEL: "f"
- MOLECULE: "CC(C)=NN/C(=N\\c1ccc(Cl)cc1)NS(=O)(=O)c1cc2ccccc2s1"
  QUALITATIVE LABEL: "f"
- MOLECULE: "COc1ccc2c(c1)[n+]([O-])c(-c1ccccc1)c(N)[n+]2[O-]"
  QUALITATIVE LABEL: "f"
- MOLECULE: "c1ccc2c(c1)SCCCSCCSCCCS2"
  QUALITATIVE LABEL: "f"
- MOLECULE: "CC1(C)CS(=O)(=O)CC(C)(C)C(=N/N)/C1=N\\N"
  QUALITATIVE LABEL: "f"
- MOLECULE: "CC(=O)O[C@H]1CC[C@@]2(C)C(=CC[C@@H]3[C@@H]2CC[C@](C)(c2nnc(C)o2)[C@H]3CC#N)C1"
  QUALITATIVE LABEL: "f"
- MOLECULE: "COc1ccc(-c2c(/C=N/OCC(=O)O)c3sc4ccccc4n3c2/C=N/OCC(=O)O)cc1"
  QUALITATIVE LABEL: "f"
- MOLECULE: "Cc1cccc(NC(=S)Nc2cccc(Cl)c2)n1"
  QUALITATIVE LABEL: "f"
